Could you please report measured EC50 for the items listed next?
# System: HCV 1a genotype replicon
# EXPERIMENTAL_PROTOCOL: HCV replicon assay (qRT-PCR or luciferase), genotype 1a
# Assay type: cell-based
# REPORTED_CONDITIONS: Hepatitis C virus, Table 12, range class, read-out: 1a EC50 Range

Prompt: Recall the recorded EC50 for "COC(=O)N[C@H](C(=O)N1CC2(CC2)C[C@H]1c1nc2ccc(C#Cc3ccc(-c4cnc([C@@H]5C[C@@H](C)CN5C(=O)[C@H](NC(=O)OC)c5ccccc5)[nH]4)cc3)cc2[nH]1)C(C)C" with HCV 1a genotype replicon and state it.
Completion: < 1 nM

Prompt: Recall the recorded EC50 for "COC(=O)N[C@H](C(=O)N1CC2(CC2)C[C@H]1c1ncc(-c2ccc(C#Cc3ccc4nc([C@@H]5CC6(CC6)CN5C(=O)[C@H](NC(=O)OC)C5CCCCC5)[nH]c4c3)cc2)[nH]1)C(C)C" with HCV 1a genotype replicon and state it.
Completion: 1 to 10 nM

Prompt: Recall the recorded EC50 for "COC(=O)N[C@H](C(=O)N1CCC[C@H]1c1nc(-c2ccc(C#Cc3ccc4[nH]c([C@@H]5C[C@@]6(CCOC6)CN5C(=O)[C@@H](NC(=O)OC)C(C)C)nc4c3)cc2)c[nH]1)C(C)C" with HCV 1a genotype replicon and state it.
Completion: < 1 nM
